experiment notes: qHTS RealTime-Glo MT Cell Viability Assay in HepG2 cells - 0 hour (AID 1224889); further: on the % scale 0 is the no-effect control and ±100 the full control effect; nearly all actives have a fitted effect of over 50% in size
run parameters: RealTime-Glo luminescence; series mostly up to 76.8 µM
Results filed as inconclusive are left out. Calls of active or inactive are those of the source. The call rests on the fitted dose curve; in most records, active means well fitted cell-killing curve with a large enough effect in the repeat runs; inconclusive means weak or mixed curves, or effect the other way; inactive means flat fitted curve, though single readings scatter.
quantity measured: activity change, negative = cytotoxicity

Here is how some compounds turned out for activity change, negative = cytotoxicity.
{"columns": ["compound", "observed measurement"],
 "data": [
  ["Nc1ccc(C(=O)NCC(=O)O)cc1", "inactive"],
  ["O=C[C@@H](O)[C@H](O)[C@H](O)CO", "inactive"],
  ["C[C@@H]1CC[C@@]2(OC1)O[C@H]1C[C@H]3[C@@H]4CC[C@H]5C[C@@H](O)CC[C@]5(C)[C@H]4CC(=O)[C@]3(C)[C@H]1[C@@H]2C", "5.89% [at 6.97 µM] (inactive)"],
  ["O=C(OOC(=O)c1ccccc1)c1ccccc1", "inactive"],
  ["Cc1ccc(S(=O)(=O)NC(=O)NN2CC3CCCC3C2)cc1 (stereo not drawn)", "inactive"],
  ["COC(C)(C)CC(C)=O", "inactive"]
]}

**Query** Which activity change, negative = cytotoxicity value belongs to CCCCN=C(N)N=C(N)N ?
**Result** inactive

**Query** Next compound: CSC(=O)c1cccc2nnsc12
**Result** inactive

**Query** Next compound: CCCC[O][Al]([O]CCCC)[O]CCCC
**Result** inactive

**Query** Next compound: CCN(CC)CC
**Result** inactive

**Query** Next compound: O=C(c1ccccc1)c1cccc(O)c1
**Result** inactive

**Query** Next compound: CN(C)CCCN(C)C
**Result** -4.9% [at 6.97 µM] (inactive)

**Query** Next compound: CC(C)(C)C(=O)CCc1ccc(Cl)cc1
**Result** inactive
